target: various mutants of kinase EGFR (BaF3 cell lines stably transfected with kinase) (Homo sapiens, UniProt P00533, T790M/C797S, form not given); construct: other: BaF3 cells stably transfected with EGFR Δ19Del/T790M/C797S; MTS, 48; other: BaF3 cell line stably transfected with EGFR Δ19Del/T790M/C7; test: Growth inhibitory activity of compounds on BaF3 cell lines stably transfected with kinase (MTS, 48 h); format: cell-based; settings: BaF3 cell line stably transfected with EGFR Δ19Del/T790M/C797S, read-out: Δ19Del/T790M/ C797S growth inhibitory activity IC50
Sequence (P00533 with tags, fused parts or gaps DEL746-750/T790M/C797S, form open): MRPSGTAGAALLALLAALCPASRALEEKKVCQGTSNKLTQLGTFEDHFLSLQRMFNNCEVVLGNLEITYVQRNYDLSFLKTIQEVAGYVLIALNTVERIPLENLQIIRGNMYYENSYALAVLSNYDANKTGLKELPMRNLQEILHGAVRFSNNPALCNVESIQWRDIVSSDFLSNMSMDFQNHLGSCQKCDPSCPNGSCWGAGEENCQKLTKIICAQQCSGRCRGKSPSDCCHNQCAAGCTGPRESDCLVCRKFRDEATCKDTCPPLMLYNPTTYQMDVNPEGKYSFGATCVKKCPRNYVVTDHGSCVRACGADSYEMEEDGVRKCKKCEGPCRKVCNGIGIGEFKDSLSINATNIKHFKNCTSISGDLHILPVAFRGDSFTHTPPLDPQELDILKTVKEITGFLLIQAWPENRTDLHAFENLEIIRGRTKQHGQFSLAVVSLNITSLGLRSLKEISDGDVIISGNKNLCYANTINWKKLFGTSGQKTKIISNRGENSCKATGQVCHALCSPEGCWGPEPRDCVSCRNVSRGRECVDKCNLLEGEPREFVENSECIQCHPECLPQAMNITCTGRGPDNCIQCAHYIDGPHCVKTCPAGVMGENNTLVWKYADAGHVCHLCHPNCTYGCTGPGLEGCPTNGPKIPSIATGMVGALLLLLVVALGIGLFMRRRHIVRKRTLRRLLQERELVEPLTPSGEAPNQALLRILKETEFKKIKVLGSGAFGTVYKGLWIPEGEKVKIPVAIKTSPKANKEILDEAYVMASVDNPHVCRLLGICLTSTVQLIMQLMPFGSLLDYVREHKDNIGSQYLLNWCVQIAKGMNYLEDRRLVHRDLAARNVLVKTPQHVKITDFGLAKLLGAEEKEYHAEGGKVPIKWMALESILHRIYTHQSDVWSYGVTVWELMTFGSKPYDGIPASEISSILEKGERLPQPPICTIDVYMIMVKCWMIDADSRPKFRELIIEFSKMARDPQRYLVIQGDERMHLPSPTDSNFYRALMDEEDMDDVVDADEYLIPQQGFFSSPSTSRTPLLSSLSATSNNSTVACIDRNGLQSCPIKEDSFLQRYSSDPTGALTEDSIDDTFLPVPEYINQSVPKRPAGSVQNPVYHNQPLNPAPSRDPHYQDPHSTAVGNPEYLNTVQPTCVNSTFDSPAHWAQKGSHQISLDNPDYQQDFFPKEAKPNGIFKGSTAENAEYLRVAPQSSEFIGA
pIC50: −log10 of the molar value.
Let's look at some molecules and their measured pIC50.

// solved cases for pIC50 follow
>  <molecule>
COc1cc(N2CCC(N3CCN(C)CC3)CC2)c(Cc2ccccc2)cc1Nc1nc(Nc2ccc3nccnc3c2N(C)S(C)(=O)=O)c2occc2n1

>  <pIC50>
5.60 to 6.30

$$$$
>  <molecule>
COc1cc(N2CCC(N3CCN(C)CC3)CC2)ccc1Nc1ncc(C(C)C)c(Nc2ccc3nccnc3c2N(C)S(C)(=O)=O)n1

>  <pIC50>
≥ 7.30

$$$$
>  <molecule>
C=Cc1cc(Nc2ncc(Cl)c(Nc3ccc4nccnc4c3N(C3CC3)S(C)(=O)=O)n2)c(OC(F)(F)F)cc1N1CCC(N2CCN(C)CC2)CC1

>  <pIC50>
6.30 to 7.30

$$$$
>  <molecule>
CCc1cc(Nc2ncc(CC)c(Nc3ccc4nccnc4c3N(C)S(C)(=O)=O)n2)c(OC)cc1N1CCC(N(C)C)C1 (stereo not drawn)

>  <pIC50>
≥ 7.30

$$$$
>  <molecule>
COc1ccc(N2CCC(O)CC2)cc1Nc1nc(Nc2ccc3nccnc3c2N(C)S(C)(=O)=O)c2sccc2n1

>  <pIC50>
≥ 7.30

$$$$

Next:
// sample `COc1ccc(N2CCC(O)CC2)cc1Nc1ncc(Cl)c(Nc2ccc3nccnc3c2N(C)S(=O)(=O)C2CC2)n1` , its pIC50 was ≥ 7.30
